- assayed_system: DOR (Homo sapiens, UniProt P41143)
- Construct: expressed in transfected cells; host or cells: CHO
- Sequence (P41143 whole entry): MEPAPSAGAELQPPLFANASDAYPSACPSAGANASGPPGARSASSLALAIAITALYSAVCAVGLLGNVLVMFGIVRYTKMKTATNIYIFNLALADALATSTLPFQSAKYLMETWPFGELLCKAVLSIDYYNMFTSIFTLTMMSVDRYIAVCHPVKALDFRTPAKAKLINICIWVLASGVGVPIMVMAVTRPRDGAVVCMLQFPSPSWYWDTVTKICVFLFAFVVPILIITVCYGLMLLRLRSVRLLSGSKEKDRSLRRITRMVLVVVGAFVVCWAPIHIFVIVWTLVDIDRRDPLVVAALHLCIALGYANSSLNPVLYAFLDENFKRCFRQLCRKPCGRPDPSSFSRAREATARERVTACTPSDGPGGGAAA
- run_description: competitive radioligand binding assay, DOR ([3H]diprenorphine, CHO cell membranes)
- cond: read-out: Ki (nM) DOR
experimental_endpoint: Ki (nM)
# number only, unit nM dropped from output

Entry Cl.O=C(CCc1cccs1)N[C@@H]1CC[C@@]2(O)[C@H]3Cc4ccc(O)c5c4[C@@]2(CCN3CC2CC2)[C@H]1O5 [Example 1 compound 30, hydrochloride] , tested on DOR (Homo sapiens, UniProt P41143), has a reported Ki of 4.87

###

- assayed_system: DOR (Homo sapiens)
- Construct: expressed in transfected cells; host or cells: CHO
- run_description: DOR [35S]GTPγS binding assay
- Format: biochemical
- cond: Tables A, B
- Procedure: The [^35S]GTPγS functional assay was conducted to determine the efficacy of the compounds at the MOR, KOR and DOR. […] The Bradford protein assay was utilized to determine and adjust the concentration of protein required for the assay. Nonspecific binding was determined with 20 μM unlabeled GTPγS. […] Bound radioactivity was determined by liquid scintillation counting. All assays were determined in duplicate and repeated at least three times. […]
Where a name gives a salt, the structure may show the parent alone.
experimental_endpoint: 35S-GTP[γS]-Binding DOR Efficacy (% max of SNC80) (%)
# number only, unit % dropped from output

Entry O=C(N[C@H]1CCC2(O)C3Cc4ccc(O)c5c4[C@@]2(CCN3CC2CC2)[C@H]1O5)c1ccc[nH]1 (stereo partly shown) [Example 1 compound 1, hydrochloride] , tested on DOR (Homo sapiens), has a reported 35S-GTP[γS]-Binding DOR Efficacy (% max of SNC80) of 50.94

Entry O=C(N[C@H]1CC[C@@]2(O)[C@H]3Cc4ccc(O)c5c4[C@@]2(CCN3CC2CC2)[C@H]1O5)c1ccsc1 [Example 1 compound 31, hydrochloride] , tested on DOR (Homo sapiens), has a reported 35S-GTP[γS]-Binding DOR Efficacy (% max of SNC80) of 58.5

Entry O=C(N[C@H]1CC[C@@]2(O)[C@H]3Cc4ccc(O)c5c4[C@@]2(CCN3CC2CC2)[C@H]1O5)c1cccs1 [Example 1 compound 25, hydrochloride] , tested on DOR (Homo sapiens), has a reported 35S-GTP[γS]-Binding DOR Efficacy (% max of SNC80) of 48.58

Entry O=C(N[C@H]1CC[C@@]2(O)[C@H]3Cc4ccc(O)c5c4[C@@]2(CCN3CC2CC2)[C@H]1O5)c1nccs1 [NTZ, hydrochloride] , tested on DOR (Homo sapiens), has a reported 35S-GTP[γS]-Binding DOR Efficacy (% max of SNC80) of 46.51

###

- run_description: Protein Binding (plasma), rat
Where a name gives a salt, the structure may show the parent alone.
Assignment: determine reported fraction unbound for the given compounds.

Per the records, this compound ( O=C(N[C@H]1CC[C@@]2(O)[C@H]3Cc4ccc(O)c5c4[C@@]2(CCN3CC2CC2)[C@H]1O5)c1ccsc1 [Example 1 compound 31, hydrochloride] ) has fraction unbound equal to 0.44

Per the records, this compound ( O=C(N[C@H]1CCC2(O)C3Cc4ccc(O)c5c4[C@@]2(CCN3CC2CC2)[C@H]1O5)c1ccc[nH]1 (stereo partly shown) [Example 1 compound 1, hydrochloride] ) has fraction unbound equal to 0.43

Per the records, this compound ( O=C(N[C@H]1CC[C@@]2(O)[C@H]3Cc4ccc(O)c5c4[C@@]2(CCN3CC2CC2)[C@H]1O5)c1cccs1 [Example 1 compound 25, hydrochloride] ) has fraction unbound equal to 0.36

Per the records, this compound ( O=C(N[C@H]1CC[C@@]2(O)[C@H]3Cc4ccc(O)c5c4[C@@]2(CCN3CC2CC2)[C@H]1O5)c1nccs1 [NTZ, hydrochloride] ) has fraction unbound equal to 0.4

###

Assignment: determine reported pKi for the given compounds.
- assayed_system: hNOP (Homo sapiens, UniProt P41146)
- Sequence (P41146 whole entry): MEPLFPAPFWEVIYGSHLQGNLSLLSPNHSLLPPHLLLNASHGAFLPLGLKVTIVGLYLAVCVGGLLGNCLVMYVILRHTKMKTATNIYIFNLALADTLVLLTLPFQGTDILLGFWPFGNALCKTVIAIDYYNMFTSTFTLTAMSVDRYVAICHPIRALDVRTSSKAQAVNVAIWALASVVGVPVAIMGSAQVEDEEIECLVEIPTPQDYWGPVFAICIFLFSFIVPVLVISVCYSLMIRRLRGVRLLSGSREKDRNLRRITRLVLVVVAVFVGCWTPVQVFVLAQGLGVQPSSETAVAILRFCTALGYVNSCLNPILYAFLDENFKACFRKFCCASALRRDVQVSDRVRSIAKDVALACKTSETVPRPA
- run_description: side effect profiling, hNOP
- Format: binding
Structures can show the parent of a compound that is named as a salt.
Reminder that pKi means the negative base-10 logarithm of the concentration expressed in mol/L.

Per the records, this compound ( O=C(N[C@H]1CC[C@@]2(O)[C@H]3Cc4ccc(O)c5c4[C@@]2(CCN3CC2CC2)[C@H]1O5)c1cccs1 [Example 1 compound 25, hydrochloride] ) has pKi equal to 5.19

Per the records, this compound ( O=C(N[C@H]1CCC2(O)C3Cc4ccc(O)c5c4[C@@]2(CCN3CC2CC2)[C@H]1O5)c1ccc[nH]1 (some centres unmarked) [Example 1 compound 1, hydrochloride] ) has pKi equal to 5.84

###

- assayed_system: DOR (Homo sapiens, UniProt P41143)
- Construct: expressed in transfected cells; host or cells: CHO
- run_description: DOR [35S]GTPγS binding assay
- Assay type: biochemical
- cond: Tables A, B; read-out: 35S-GTP[γS]-Binding DOR Potency EC50
Where a name gives a salt, the structure may show the parent alone.
experimental_endpoint: pEC50
Reminder that pEC50 means the negative base-10 logarithm of the concentration expressed in mol/L.

Per the records, this compound ( O=C(N[C@H]1CC[C@@]2(O)[C@H]3Cc4ccc(O)c5c4[C@@]2(CCN3CC2CC2)[C@H]1O5)c1nccs1 [NTZ, hydrochloride] ) has pEC50 equal to 7.63

###

- assayed_system: hM4 (Homo sapiens, UniProt P08173)
- Sequence (P08173 1-479): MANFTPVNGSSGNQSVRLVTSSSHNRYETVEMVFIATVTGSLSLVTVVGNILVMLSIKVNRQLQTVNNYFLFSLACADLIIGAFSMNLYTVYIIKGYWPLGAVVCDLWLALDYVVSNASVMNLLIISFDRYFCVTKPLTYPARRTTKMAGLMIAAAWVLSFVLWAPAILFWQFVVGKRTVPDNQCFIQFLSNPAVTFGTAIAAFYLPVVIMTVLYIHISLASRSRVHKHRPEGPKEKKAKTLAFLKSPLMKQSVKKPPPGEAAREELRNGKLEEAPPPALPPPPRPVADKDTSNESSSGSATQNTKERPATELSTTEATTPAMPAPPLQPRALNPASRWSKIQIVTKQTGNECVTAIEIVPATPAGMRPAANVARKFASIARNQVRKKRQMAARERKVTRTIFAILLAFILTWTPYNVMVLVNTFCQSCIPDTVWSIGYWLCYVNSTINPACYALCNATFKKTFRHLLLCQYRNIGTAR
Where a name gives a salt, the structure may show the parent alone.
experimental_endpoint: pKi
Reminder that pKi means the negative base-10 logarithm of the concentration expressed in mol/L.

Per the records, this compound ( O=C(N[C@H]1CC[C@@]2(O)[C@H]3Cc4ccc(O)c5c4[C@@]2(CCN3CC2CC2)[C@H]1O5)c1cccs1 [Example 1 compound 25, hydrochloride] ) has pKi equal to 5.31

###

Assignment: determine reported Ki for the given compounds.
Structures can show the parent of a compound that is named as a salt.

Entry O=C(N[C@H]1CCC2(O)C3Cc4ccc(O)c5c4[C@@]2(CCN3CC2CC2)[C@H]1O5)c1ccc[nH]1 (some centres unmarked) [Example 1 compound 1, hydrochloride] , tested on UniProtKB P08172, has a reported Ki of 7.28 µM

Entry O=C(N[C@H]1CC[C@@]2(O)[C@H]3Cc4ccc(O)c5c4[C@@]2(CCN3CC2CC2)[C@H]1O5)c1cccs1 [Example 1 compound 25, hydrochloride] , tested on UniProtKB P08172, has a reported Ki of 1.9 µM

###

- run_description: Protein Binding (plasma), human
Counter-ions that a name gives are not always drawn.
Assignment: determine reported fraction unbound for the given compounds.
Response field accepts a number only; no unit should be typed.

Per the records, this compound ( O=C(N[C@H]1CC[C@@]2(O)[C@H]3Cc4ccc(O)c5c4[C@@]2(CCN3CC2CC2)[C@H]1O5)c1nccs1 [NTZ, hydrochloride] ) has fraction unbound equal to 0.56

Per the records, this compound ( O=C(N[C@H]1CC[C@@]2(O)[C@H]3Cc4ccc(O)c5c4[C@@]2(CCN3CC2CC2)[C@H]1O5)c1cccs1 [Example 1 compound 25, hydrochloride] ) has fraction unbound equal to 0.63

Per the records, this compound ( O=C(N[C@H]1CCC2(O)C3Cc4ccc(O)c5c4[C@@]2(CCN3CC2CC2)[C@H]1O5)c1ccc[nH]1 (stereo partly shown) [Example 1 compound 1, hydrochloride] ) has fraction unbound equal to 0.43

Per the records, this compound ( O=C(N[C@H]1CC[C@@]2(O)[C@H]3Cc4ccc(O)c5c4[C@@]2(CCN3CC2CC2)[C@H]1O5)c1ccsc1 [Example 1 compound 31, hydrochloride] ) has fraction unbound equal to 0.4

###

- assayed_system: h5-HT1b (Homo sapiens, UniProt P28222)
- Sequence (P28222 whole entry): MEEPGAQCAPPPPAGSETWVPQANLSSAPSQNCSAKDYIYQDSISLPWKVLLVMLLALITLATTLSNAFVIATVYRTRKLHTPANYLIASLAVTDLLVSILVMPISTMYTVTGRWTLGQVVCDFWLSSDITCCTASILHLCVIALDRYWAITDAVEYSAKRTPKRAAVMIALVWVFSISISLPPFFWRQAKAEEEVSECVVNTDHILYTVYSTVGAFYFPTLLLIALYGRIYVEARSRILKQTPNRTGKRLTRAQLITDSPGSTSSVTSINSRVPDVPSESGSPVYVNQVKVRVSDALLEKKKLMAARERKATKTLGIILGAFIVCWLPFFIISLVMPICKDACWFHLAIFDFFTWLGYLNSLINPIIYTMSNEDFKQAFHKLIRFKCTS
Counter-ions that a name gives are not always drawn.
experimental_endpoint: Ki (nM)
# number only, unit nM dropped from output

Per the records, this compound ( O=C(N[C@H]1CCC2(O)C3Cc4ccc(O)c5c4[C@@]2(CCN3CC2CC2)[C@H]1O5)c1ccc[nH]1 (stereo partly shown) [Example 1 compound 1, hydrochloride] ) has Ki equal to 482
